Assay notes: pharmacokinetic study, plasma and brain, after i.p. administration
Type: in vivo, mice (male Albino Swiss)
Condition parameters: male, Albino Swiss, ip; plasma, mouse, 10 mg/kg i.p.; read-out: Tmax (time at maximum observed concentration)
Quantity measured: Tmax (min)
Give the quantity in min, number only.

# lookup: Tmax of `O=C(Nc1ccc(-c2noc(-c3ccccc3Cl)n2)c(Cl)c1)c1ccccn1`
15

###

Assay notes: pharmacokinetic study, plasma and brain, after i.p. administration
Format: in vivo, mice (male Albino Swiss)
Condition parameters: male, Albino Swiss, ip; brain, mouse, 10 mg/kg i.p.; read-out: T1/2 (terminal elimination half-life) (converted)
Quantity measured: half-life (h)
Give the quantity in h, number only.

# lookup: half-life of `O=C(Nc1ccc(-c2noc(-c3ccccc3Cl)n2)c(Cl)c1)c1ccccn1`
2.26

###

Assay notes: pharmacokinetic study, plasma and brain, after i.p. administration
Assay type: in vivo, mice (male Albino Swiss)
Condition parameters: male, Albino Swiss, ip; plasma, mouse, 10 mg/kg i.p.; read-out: T1/2 (terminal elimination half-life) (converted)
Quantity measured: half-life (h)
Give the quantity in h, number only.

# lookup: half-life of `O=C(Nc1ccc(-c2noc(-c3ccccc3Cl)n2)c(Cl)c1)c1ccccn1`
1.1

###

Subject of test: mGlu4 receptor (Homo sapiens)
Construct: mGlu4 receptor NM_000841, mGlu7 receptor NM_000844.2, and mGlu8 receptor NM_000845; expressed in transfected cells; host or cells: T-REx 293
Sequence (Q14833 33-912): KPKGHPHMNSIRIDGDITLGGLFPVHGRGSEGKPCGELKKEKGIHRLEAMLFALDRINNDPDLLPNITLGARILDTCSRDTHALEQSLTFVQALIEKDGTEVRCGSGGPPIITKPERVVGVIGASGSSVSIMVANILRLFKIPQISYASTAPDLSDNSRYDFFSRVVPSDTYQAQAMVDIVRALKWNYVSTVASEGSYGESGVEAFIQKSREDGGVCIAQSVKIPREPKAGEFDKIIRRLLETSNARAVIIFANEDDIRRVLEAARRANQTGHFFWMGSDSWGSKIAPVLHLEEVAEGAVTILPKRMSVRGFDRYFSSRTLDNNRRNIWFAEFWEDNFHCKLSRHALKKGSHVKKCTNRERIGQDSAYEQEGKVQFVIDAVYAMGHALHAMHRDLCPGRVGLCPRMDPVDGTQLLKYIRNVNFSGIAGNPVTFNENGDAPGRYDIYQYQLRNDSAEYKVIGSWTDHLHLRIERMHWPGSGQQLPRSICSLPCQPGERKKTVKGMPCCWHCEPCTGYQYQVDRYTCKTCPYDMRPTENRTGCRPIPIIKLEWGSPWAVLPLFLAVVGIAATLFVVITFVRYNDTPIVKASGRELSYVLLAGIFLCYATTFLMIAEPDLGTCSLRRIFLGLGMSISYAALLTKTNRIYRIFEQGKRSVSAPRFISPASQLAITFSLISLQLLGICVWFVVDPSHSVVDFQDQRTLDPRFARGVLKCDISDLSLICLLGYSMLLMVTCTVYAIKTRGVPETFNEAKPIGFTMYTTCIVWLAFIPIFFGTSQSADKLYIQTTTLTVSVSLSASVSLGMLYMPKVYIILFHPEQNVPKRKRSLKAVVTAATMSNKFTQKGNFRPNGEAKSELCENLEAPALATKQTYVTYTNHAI
Assay notes: forskolin-stimulated cAMP assay, PAM mode (EC20 of L-Glu), T-REx 293 cells
Assay type: cell-based
Condition parameters: in the presence of 10 µM of compound; SEM where given
Marks after values point to notes of the source that are not given here.
# Lookup of reported Fold shift of L-Glu dose-response curve keyed by entry

# lookup: Fold shift of L-Glu dose-response curve of `COc1cc(NC(=O)c2ccccn2)ccc1-c1noc(-c2ccccc2F)n1`
3.68 (0.19)^d

Same again, this time with `O=C(Nc1ccc(-c2noc(-c3ccccc3)n2)c(Cl)c1)c1ccccn1`
6.77 (0.53)^d

Same again, this time with `Cc1cc(NC(=O)c2ccccn2)ccc1-c1noc(-c2ccccc2)n1`
5.1

Same again, this time with `O=C(Nc1ccc(-c2noc(-c3ccccc3Cl)n2)c(Cl)c1)c1ccccn1`
8.03 (0.76)^d

Same again, this time with `COc1cc(NC(=O)c2ccccn2)ccc1-c1noc(-c2ccccc2Cl)n1`
13.4 (2.00)^d

Same again, this time with `O=C(Nc1ccc(-c2noc(-c3ccccc3Cl)n2)c(C(F)(F)F)c1)c1ccccn1`
2.94 (0.1)^d

// provenance: paper PMC8667925
